List of EC50 values.
Target: TRAP1 enzyme (Homo sapiens)
Sequence (Q12931 60-704): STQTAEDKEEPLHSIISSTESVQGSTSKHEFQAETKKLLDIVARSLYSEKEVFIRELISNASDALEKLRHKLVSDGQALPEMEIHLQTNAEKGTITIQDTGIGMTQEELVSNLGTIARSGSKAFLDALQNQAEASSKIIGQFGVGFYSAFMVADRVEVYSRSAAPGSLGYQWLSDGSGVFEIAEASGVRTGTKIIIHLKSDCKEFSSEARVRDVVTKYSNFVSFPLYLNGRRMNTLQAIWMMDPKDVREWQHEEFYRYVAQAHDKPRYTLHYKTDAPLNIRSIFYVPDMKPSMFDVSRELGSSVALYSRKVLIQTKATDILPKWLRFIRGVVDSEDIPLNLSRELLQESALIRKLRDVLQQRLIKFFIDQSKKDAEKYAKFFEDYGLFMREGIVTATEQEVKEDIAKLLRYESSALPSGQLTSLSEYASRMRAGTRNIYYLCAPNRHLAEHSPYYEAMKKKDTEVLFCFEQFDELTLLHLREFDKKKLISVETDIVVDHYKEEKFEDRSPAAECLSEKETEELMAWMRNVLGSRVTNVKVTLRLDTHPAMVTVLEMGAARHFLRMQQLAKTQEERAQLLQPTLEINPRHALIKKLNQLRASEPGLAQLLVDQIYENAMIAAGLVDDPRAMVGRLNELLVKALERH
Experiment: Malachite green phosphate assay of TRAP1 ATPase activity
Assay type: biochemical
Conditions: TRAP1 ATPase activation, 150 nM Trap1, 20 μM ATP, geometric mean; read-out: Malachite Green Fluor DRC: GeoMean EC50

Below are worked cases with known answers.
> print(dat)
                                item.smiles              target.of.assay  readout.label        result
1  COc1ccc(NC(=O)c2cnc(C(F)(F)F)[nH]2)cc1S(=O)(=O)N(CCCCCCBr)c1ccc(Br)cc1  TRAP1 enzyme (Homo sapiens)           EC50   10 to 20 µM
2  O=C(Nc1ccc(F)c(S(=O)(=O)Nc2ccc(F)cc2)c1)c1cnc(C(F)(F)F)[nH]1  TRAP1 enzyme (Homo sapiens)           EC50   10 to 20 µM
3  COc1ccc(NC(=O)c2cnc(C(F)(F)F)[nH]2)cc1S(=O)(=O)Nc1ccc(C(C)(C)C)cc1  TRAP1 enzyme (Homo sapiens)           EC50  20 to 100 µM

Missing value: EC50, TRAP1 enzyme (Homo sapiens), entry `O=C(O)/C=C/c1ccc(NC(=O)c2ncc(-c3ccccc3)o2)cc1S(=O)(=O)Nc1ccc(Cl)cc1` . Fill in?
< 10 µM
